test: Reduction of propionyl-CoA in human hepatocytes derived from propionic acidemia patient pretreated for 30 mins followed by 13C-isoleucine addition and measured after 1 hr by MS/MS analysis; format: functional, cell-based; settings: hepatocyte
MEASUREMENT_KIND: pEC50
// pEC50 is dimensionless: -log10 of concentration (M)

Example entries and their recorded answers appear below.
> print(dat)
                    molecule  experimental.value
1           CCCC(C)(C)C(=O)O                6.12
2  CC(C)(C)C(=O)O [PIVALATE]                5.26
3            CC1(CC(=O)O)CC1                4.81
4                CSCCCC(=O)O                4.72
5               O=C(O)C1CCC1                4.26

Task: For the molecule CNCCC(=O)O , give its reported pEC50.
Result: 5.18

The reported numbers originate from ChEMBL document CHEMBL4808180.
